tgt: ERα (Homo sapiens)
Construct: host or cells: MCF7
Sequence (P03372 1-595): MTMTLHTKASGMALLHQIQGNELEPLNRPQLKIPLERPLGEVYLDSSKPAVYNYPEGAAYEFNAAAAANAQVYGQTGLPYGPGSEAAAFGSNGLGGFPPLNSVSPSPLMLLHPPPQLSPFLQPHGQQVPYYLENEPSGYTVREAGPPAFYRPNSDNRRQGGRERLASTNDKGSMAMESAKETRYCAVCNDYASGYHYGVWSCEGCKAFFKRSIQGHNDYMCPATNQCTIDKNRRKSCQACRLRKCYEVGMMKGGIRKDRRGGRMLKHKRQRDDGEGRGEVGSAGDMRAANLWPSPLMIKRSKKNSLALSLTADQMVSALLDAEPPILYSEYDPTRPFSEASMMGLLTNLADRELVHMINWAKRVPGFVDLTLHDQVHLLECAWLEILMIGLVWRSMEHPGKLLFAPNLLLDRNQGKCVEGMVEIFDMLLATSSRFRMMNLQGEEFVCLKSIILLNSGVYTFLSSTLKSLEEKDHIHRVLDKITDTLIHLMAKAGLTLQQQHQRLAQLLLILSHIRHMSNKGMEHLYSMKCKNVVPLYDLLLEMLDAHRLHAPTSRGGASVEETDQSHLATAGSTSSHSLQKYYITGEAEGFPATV
assay-comment: Estrogen receptor degradation activity: breast cancer cell ERα in cell western assay (MCF7 cells)
Type: cell-based
applied-conditions: 4 hours post compound addition, concentration which degrades 50% of the estrogen receptor, read-out: Degradation IC50
measure-name: DC50 (nM)

O=C(O)c1ccc2c(c1)CCCC(c1ccc(Cl)cc1C(F)(F)F)=C2c1ccc(CC2CN(CCC(F)F)C2)cc1 [Example 289] ... 0.3
O=C(O)c1ccc2c(c1)CCCC(c1ccc(F)cc1F)=C2c1ccc(CC2CN(CCC(F)F)C2)cc1 [Example 281] ... 0.4
Cc1cc2c(cc1C(=O)O)CCCC(c1ccc(Cl)cc1Cl)=C2c1ccc(CC2CN(CCCF)C2)cc1 [Example 249] ... 0.4
O=C(O)c1ccc2c(c1)CCCC(c1cccc(Cl)c1F)=C2c1ccc(CC2CN(CCCF)C2)cc1 [Example 32] ... 0.6
N#Cc1cc2c(cc1C(=O)O)CCCC(c1ccc(Cl)cc1Cl)=C2c1ccc(CC2CN(CCCF)C2)cc1 [Example 245] ... 269
CC(C)C1CCc2cc(C(=O)O)ccc2C(c2ccc(CC3CN(CCCF)C3)cc2)=C1c1ccc(Cl)cc1Cl (single isomer, unassigned) [Example 321] ... 0.5

P = COc1cc(C2=C(c3ccc(CC4CN(CCCF)C4)cc3)c3ccc(C(=O)O)cc3CCC2)ccn1 [Example 21]
Q = CC1CCc2cc(C(=O)O)ccc2C(c2ccc(CC3CN(CCCF)C3)cc2)=C1c1ccc(F)c(F)c1 (racemic) [Example 326]
R = Cc1c(F)ccc(C2=C(c3ccc(CC4CN(CCC(F)F)C4)cc3)c3ccc(C(=O)O)cc3CCC2)c1C [Example 285]
S = Cl.O=C(O)c1ccc2c(c1)CCCC(c1ccc(Cl)c(Cl)c1)=C2c1ccc(CC2CN(CCCF)C2)cc1 [Example 207, hydrochloride]
// ascending sort on recorded DC50 When ranking, write the labels in the order the request describes. R, Q, S, P
(R: 0.4 nM, Q: 0.7 nM, S: 1.1 nM, P: 2.1 nM)

Reference for the values: patent US12595230B2
